FYI, the data here is from ChEMBL document CHEMBL4393682.

Test: Metabolic stability in Wistar rat liver microsomes assessed as compound remaining at 1 uM after 60 mins by LC-MS/MS analysis relative to control
Type: ADME, Microsome
Conditions: read-out: Stability
Answer each item with its documented remaining at 1 h, 1 µM.
Express your answer in %, writing the number without its unit.

# input Assign remaining at 1 h, 1 µM to the following record: O=c1c(O)c(-c2cc(O)c(O)c(O)c2)oc2cc(O)cc(O)c12
# output 4.85

# input Assign remaining at 1 h, 1 µM to the following record: O=c1c(O[C@@H]2O[C@H](CO)[C@@H](O[C@@H]3O[C@H](CO)[C@H](O)[C@H](O)[C@H]3O)[C@H](O)[C@H]2O)c(-c2cc(O)c(O)c(O)c2)oc2cc([O-])cc(O)c12.[Na+]
# output 83.5

====

Assay: Metabolic stability in Wistar rat liver microsomes assessed as compound remaining at 1 uM after 90 mins by LC-MS/MS analysis relative to control
Format: ADME, Microsome
Conditions: read-out: Stability
Value type: remaining at 1.5 h, 1 µM (%)
Express your answer in %, writing the number without its unit.

# input Assign remaining at 1.5 h, 1 µM to the following record: O=c1c(O)c(-c2cc(O)c(O)c(O)c2)oc2cc(O)cc(O)c12
# output 3.32

# input Assign remaining at 1.5 h, 1 µM to the following record: O=c1c(O[C@@H]2O[C@H](CO)[C@@H](O[C@@H]3O[C@H](CO)[C@H](O)[C@H](O)[C@H]3O)[C@H](O)[C@H]2O)c(-c2cc(O)c(O)c(O)c2)oc2cc([O-])cc(O)c12.[Na+]
# output 78.1

====

Experiment: Metabolic stability in Wistar rat plasma assessed as compound remaining at 3 uM after 10 mins by LC-MS/MS analysis relative to control
Format: ADME, cell-free
Conditions: read-out: Stability
Answer each item with its documented remaining at 10 min, 3 µM.
Express your answer in %, writing the number without its unit.

# input Assign remaining at 10 min, 3 µM to the following record: O=c1c(O)c(-c2cc(O)c(O)c(O)c2)oc2cc(O)cc(O)c12
# output 89.2

# input Assign remaining at 10 min, 3 µM to the following record: O=c1c(O[C@@H]2O[C@H](CO)[C@@H](O[C@@H]3O[C@H](CO)[C@H](O)[C@H](O)[C@H]3O)[C@H](O)[C@H]2O)c(-c2cc(O)c(O)c(O)c2)oc2cc([O-])cc(O)c12.[Na+]
# output 88.9

====

Assay: Aqueous solubility of compound after 24 hrs by HPLC analysis
Assay type: physicochemical
Conditions: aqueous
Answer each item with its documented solubility at 24 h.

# input Assign solubility at 24 h to the following record: O=c1c(O[C@@H]2O[C@H](CO)[C@@H](O[C@@H]3O[C@H](CO)[C@H](O)[C@H](O)[C@H]3O)[C@H](O)[C@H]2O)c(-c2cc(O)c(O)c(O)c2)oc2cc([O-])cc(O)c12.[Na+]
# output > 100000 µg/mL

# input Assign solubility at 24 h to the following record: O=c1c(O)c(-c2cc(O)c(O)c(O)c2)oc2cc(O)cc(O)c12
# output 14 µg/mL

# input Assign solubility at 24 h to the following record: CC(=O)OC[C@H]1O[C@@H](O[C@H]2[C@H](OC(C)=O)[C@@H](OC(C)=O)[C@H](Oc3c(-c4cc(O)c(O)c(O)c4)oc4cc(O)cc(O)c4c3=O)O[C@@H]2COC(C)=O)[C@H](OC(C)=O)[C@@H](OC(C)=O)[C@H]1OC(C)=O
# output 1390 µg/mL

====

Test: Metabolic stability in Wistar rat plasma assessed as compound remaining at 3 uM after 5 mins by LC-MS/MS analysis relative to control
Type: ADME, cell-free
Settings: read-out: Stability
Answer each item with its documented remaining at 5 min, 3 µM.
Express your answer in %, writing the number without its unit.

# input Assign remaining at 5 min, 3 µM to the following record: O=c1c(O[C@@H]2O[C@H](CO)[C@@H](O[C@@H]3O[C@H](CO)[C@H](O)[C@H](O)[C@H]3O)[C@H](O)[C@H]2O)c(-c2cc(O)c(O)c(O)c2)oc2cc([O-])cc(O)c12.[Na+]
# output 99.7

# input Assign remaining at 5 min, 3 µM to the following record: O=c1c(O)c(-c2cc(O)c(O)c(O)c2)oc2cc(O)cc(O)c12
# output 98.1

====

Test: Metabolic stability in Wistar rat liver microsomes assessed as compound remaining at 1 uM after 40 mins by LC-MS/MS analysis relative to control
Format: ADME, Microsome
Details: read-out: Stability
Value type: remaining at 40 min, 1 µM (%)
Express your answer in %, writing the number without its unit.

# input Assign remaining at 40 min, 1 µM to the following record: O=c1c(O)c(-c2cc(O)c(O)c(O)c2)oc2cc(O)cc(O)c12
# output 8.01

# input Assign remaining at 40 min, 1 µM to the following record: O=c1c(O[C@@H]2O[C@H](CO)[C@@H](O[C@@H]3O[C@H](CO)[C@H](O)[C@H](O)[C@H]3O)[C@H](O)[C@H]2O)c(-c2cc(O)c(O)c(O)c2)oc2cc([O-])cc(O)c12.[Na+]
# output 87.5

====

Answer each item with its documented remaining at 1 h, 3 µM.
Test: Metabolic stability in Wistar rat plasma assessed as compound remaining at 3 uM after 60 mins by LC-MS/MS analysis relative to control
Format: ADME, cell-free
Conditions: read-out: Stability
Express your answer in %, writing the number without its unit.

# input Assign remaining at 1 h, 3 µM to the following record: O=c1c(O)c(-c2cc(O)c(O)c(O)c2)oc2cc(O)cc(O)c12
# output 5.81

# input Assign remaining at 1 h, 3 µM to the following record: O=c1c(O[C@@H]2O[C@H](CO)[C@@H](O[C@@H]3O[C@H](CO)[C@H](O)[C@H](O)[C@H]3O)[C@H](O)[C@H]2O)c(-c2cc(O)c(O)c(O)c2)oc2cc([O-])cc(O)c12.[Na+]
# output 67.7

====

Experiment: Metabolic stability in Wistar rat liver microsomes assessed as compound remaining at 1 uM after 5 mins by LC-MS/MS analysis relative to control
Type: ADME, Microsome
Conditions: read-out: Stability
Answer each item with its documented remaining at 5 min, 1 µM.
Express your answer in %, writing the number without its unit.

# input Assign remaining at 5 min, 1 µM to the following record: O=c1c(O)c(-c2cc(O)c(O)c(O)c2)oc2cc(O)cc(O)c12
# output 81.3

# input Assign remaining at 5 min, 1 µM to the following record: O=c1c(O[C@@H]2O[C@H](CO)[C@@H](O[C@@H]3O[C@H](CO)[C@H](O)[C@H](O)[C@H]3O)[C@H](O)[C@H]2O)c(-c2cc(O)c(O)c(O)c2)oc2cc([O-])cc(O)c12.[Na+]
# output 96.6

====

Answer each item with its documented remaining at 2 h, 1 µM.
Assay: Metabolic stability in Wistar rat liver microsomes assessed as compound remaining at 1 uM after 120 mins by LC-MS/MS analysis relative to control
Format: ADME, Microsome
Settings: read-out: Stability
Express your answer in %, writing the number without its unit.

# input Assign remaining at 2 h, 1 µM to the following record: O=c1c(O[C@@H]2O[C@H](CO)[C@@H](O[C@@H]3O[C@H](CO)[C@H](O)[C@H](O)[C@H]3O)[C@H](O)[C@H]2O)c(-c2cc(O)c(O)c(O)c2)oc2cc([O-])cc(O)c12.[Na+]
# output 76.1

# input Assign remaining at 2 h, 1 µM to the following record: O=c1c(O)c(-c2cc(O)c(O)c(O)c2)oc2cc(O)cc(O)c12
# output 1.9

====

Answer each item with its documented remaining at 3 h, 3 µM.
Assay: Metabolic stability in Wistar rat plasma assessed as compound remaining at 3 uM after 180 mins by LC-MS/MS analysis relative to control
Assay type: ADME, cell-free
Details: read-out: Stability
Write your answer as a measured quantity: the number, then the unit.

# input Assign remaining at 3 h, 3 µM to the following record: O=c1c(O[C@@H]2O[C@H](CO)[C@@H](O[C@@H]3O[C@H](CO)[C@H](O)[C@H](O)[C@H]3O)[C@H](O)[C@H]2O)c(-c2cc(O)c(O)c(O)c2)oc2cc([O-])cc(O)c12.[Na+]
# output 58.4%

# input Assign remaining at 3 h, 3 µM to the following record: O=c1c(O)c(-c2cc(O)c(O)c(O)c2)oc2cc(O)cc(O)c12 [MYRICETIN]
# output 0.53%

====

Assay: Half life in Wistar rat plasma at 3 uM measured up to 180 mins by LC-MS/MS analysis
Assay type: ADME, cell-free
Answer each item with its documented half-life at 3 µM.
Express your answer in h, writing the number without its unit.

# input Assign half-life at 3 µM to the following record: O=c1c(O)c(-c2cc(O)c(O)c(O)c2)oc2cc(O)cc(O)c12
# output 0.234

# input Assign half-life at 3 µM to the following record: O=c1c(O[C@@H]2O[C@H](CO)[C@@H](O[C@@H]3O[C@H](CO)[C@H](O)[C@H](O)[C@H]3O)[C@H](O)[C@H]2O)c(-c2cc(O)c(O)c(O)c2)oc2cc([O-])cc(O)c12.[Na+]
# output 2.42
